These measurements were taken from patent EP4717706A1.

Target: VLP2 (virus-like particles, capsid protein particles of AAV serotype 2) (AAV serotype 2 (AAV2)) (UniProt P03135)
Sequence (P03135 whole entry): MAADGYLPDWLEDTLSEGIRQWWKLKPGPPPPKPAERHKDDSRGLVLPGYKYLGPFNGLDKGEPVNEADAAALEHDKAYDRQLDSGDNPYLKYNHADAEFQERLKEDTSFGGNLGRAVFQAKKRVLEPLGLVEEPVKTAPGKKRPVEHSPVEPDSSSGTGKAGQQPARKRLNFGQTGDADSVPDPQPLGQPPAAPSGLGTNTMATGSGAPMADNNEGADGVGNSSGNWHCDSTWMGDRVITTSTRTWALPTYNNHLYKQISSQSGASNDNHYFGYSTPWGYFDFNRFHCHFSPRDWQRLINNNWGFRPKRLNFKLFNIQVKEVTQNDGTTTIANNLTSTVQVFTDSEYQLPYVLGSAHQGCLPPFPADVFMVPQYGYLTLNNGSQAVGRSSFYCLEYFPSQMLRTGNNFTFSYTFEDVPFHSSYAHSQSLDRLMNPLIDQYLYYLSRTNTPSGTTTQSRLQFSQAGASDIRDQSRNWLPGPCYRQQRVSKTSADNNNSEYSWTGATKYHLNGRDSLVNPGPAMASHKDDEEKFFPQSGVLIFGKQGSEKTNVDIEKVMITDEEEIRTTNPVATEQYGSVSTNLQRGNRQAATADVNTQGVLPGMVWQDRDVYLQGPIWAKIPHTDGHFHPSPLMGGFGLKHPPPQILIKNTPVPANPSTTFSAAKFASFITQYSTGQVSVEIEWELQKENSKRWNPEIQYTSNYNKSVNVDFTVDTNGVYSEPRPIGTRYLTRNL
Experiment: ELISA on immobilised VLP2 (culture supernatant); A450 after 1:1 1 M NaOH, 15 min, 30°C divided by A450 untreated
PROPERTY_NAME: Remaining activity [%] (%)
Response body: numeric value in %, unit text excluded.

Challenge: Which Remaining activity [%] value belongs to AVR25c with E378G, V398A (receptor) MGSAGESDQITLPKHEAQLKVYVLLVPPKGEASTYDWQLITHPRDYSGEMEGEHSQILKLSNLTPGLYGYRAVVEGQNAHSEGYVNVTAEPGPRKNRPPIAIVSPQFQEISLPTTSAVIDGSQSTDDDKIVQYHWEELKGPLREEKISEDTPILKLSNLVPGNYTFRLTVVDTDGATDSTTADLTVNKAVDHHHHHH ?
Response given: 67.5

Challenge: Report Remaining activity [%] for AVR25c with G314D, V499I (receptor) MGSADESDQITLPKHEAQLKVYVLLVPPKGEASTYDWQLITHPRDYSGEMEGEHSQILKLSNLTPGLYEYRAVVEGQNAHSEGYVNVTVEPGPRKNRPPIAIVSPQFQEISLPTTSAVIDGSQSTDDDKIVQYHWEELKGPLREEKISEDTPILKLSNLVPGNYTFRLTVVDTDGATDSTTADLTVNKAIDHHHHHH please.
Response given: 79.1

Challenge: Item AVR28 (AVR25c with I366F, V394A, K455R) (receptor) MGSAGESDQITLPKHEAQLKVYVLLVPPKGEASTYDWQLITHPRDYSGEMEGEHSQFLKLSNLTPGLYEYRAVVEGQNAHSEGYANVTVEPGPRKNRPPIAIVSPQFQEISLPTTSAVIDGSQSTDDDKIVQYHWEELKGPLREERISEDTPILKLSNLVPGNYTFRLTVVDTDGATDSTTADLTVNKAVDHHHHHH has what recorded Remaining activity [%]?
Response given: 71.9

Challenge: Quick check: Remaining activity [%] of AVR25c with E325V, D437V (receptor) MGSAGESDQITLPKHVAQLKVYVLLVPPKGEASTYDWQLITHPRDYSGEMEGEHSQILKLSNLTPGLYEYRAVVEGQNAHSEGYVNVTVEPGPRKNRPPIAIVSPQFQEISLPTTSAVIDGSQSTDDVKIVQYHWEELKGPLREEKISEDTPILKLSNLVPGNYTFRLTVVDTDGATDSTTADLTVNKAVDHHHHHH ?
Response given: 76.7

Challenge: Form field: reported Remaining activity [%] of AVR25c_T474R (AVR25c with T474R) (receptor) MGSAGESDQITLPKHEAQLKVYVLLVPPKGEASTYDWQLITHPRDYSGEMEGEHSQILKLSNLTPGLYEYRAVVEGQNAHSEGYVNVTVEPGPRKNRPPIAIVSPQFQEISLPTTSAVIDGSQSTDDDKIVQYHWEELKGPLREEKISEDTPILKLSNLVPGNYRFRLTVVDTDGATDSTTADLTVNKAVDHHHHHH
Response given: 100

Challenge: Fill in: Remaining activity [%] of AVR25c with G314D, E399K, E445K (receptor) MGSADESDQITLPKHEAQLKVYVLLVPPKGEASTYDWQLITHPRDYSGEMEGEHSQILKLSNLTPGLYEYRAVVEGQNAHSEGYVNVTVKPGPRKNRPPIAIVSPQFQEISLPTTSAVIDGSQSTDDDKIVQYHWKELKGPLREEKISEDTPILKLSNLVPGNYTFRLTVVDTDGATDSTTADLTVNKAVDHHHHHH is ___
Response given: 62.5

Challenge: Remaining activity [%] lookup needed for AVR25c (AVR25a with K467N) (receptor) MGSAGESDQITLPKHEAQLKVYVLLVPPKGEASTYDWQLITHPRDYSGEMEGEHSQILKLSNLTPGLYEYRAVVEGQNAHSEGYVNVTVEPGPRKNRPPIAIVSPQFQEISLPTTSAVIDGSQSTDDDKIVQYHWEELKGPLREEKISEDTPILKLSNLVPGNYTFRLTVVDTDGATDSTTADLTVNKAVDHHHHHH , thanks.
Response given: 33.5

Challenge: Name the reported Remaining activity [%] value associated with the binder AVR25c with T434S (receptor) MGSAGESDQITLPKHEAQLKVYVLLVPPKGEASTYDWQLITHPRDYSGEMEGEHSQILKLSNLTPGLYEYRAVVEGQNAHSEGYVNVTVEPGPRKNRPPIAIVSPQFQEISLPTTSAVIDGSQSSDDDKIVQYHWEELKGPLREEKISEDTPILKLSNLVPGNYTFRLTVVDTDGATDSTTADLTVNKAVDHHHHHH
Response given: 77.3

Challenge: What value of Remaining activity [%] has been reported for the following binder? AVR25c with Q415R, S457R (receptor) MGSAGESDQITLPKHEAQLKVYVLLVPPKGEASTYDWQLITHPRDYSGEMEGEHSQILKLSNLTPGLYEYRAVVEGQNAHSEGYVNVTVEPGPRKNRPPIAIVSPRFQEISLPTTSAVIDGSQSTDDDKIVQYHWEELKGPLREEKIREDTPILKLSNLVPGNYTFRLTVVDTDGATDSTTADLTVNKAVDHHHHHH
Response given: 55.1

Challenge: Please report the recorded Remaining activity [%] for AVR25c with G392E, S433G, A485V, L493M, N496D (receptor) MGSAGESDQITLPKHEAQLKVYVLLVPPKGEASTYDWQLITHPRDYSGEMEGEHSQILKLSNLTPGLYEYRAVVEGQNAHSEEYVNVTVEPGPRKNRPPIAIVSPQFQEISLPTTSAVIDGSQGTDDDKIVQYHWEELKGPLREEKISEDTPILKLSNLVPGNYTFRLTVVDTDGVTDSTTADMTVDKAVDHHHHHH .
Response given: 61

Challenge: Look up Remaining activity [%]: AVR25c with P322A, T350A, L421P (receptor) MGSAGESDQITLAKHEAQLKVYVLLVPPKGEASTYDWQLIAHPRDYSGEMEGEHSQILKLSNLTPGLYEYRAVVEGQNAHSEGYVNVTVEPGPRKNRPPIAIVSPQFQEISPPTTSAVIDGSQSTDDDKIVQYHWEELKGPLREEKISEDTPILKLSNLVPGNYTFRLTVVDTDGATDSTTADLTVNKAVDHHHHHH
Response given: 49.6
